Quick reference for Phage binding ELISA, Anti-CD28 Fab signal among some binders
biological target: T1, Anti-CD28 Fab (SEQ ID NOs: 696, 697); experiment: phage ELISA; biotinylated anti-CD28 Fab on neutravidin plate, clonal phage supernatant, anti-M13 HRP detection;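 also: crude supernatants of single phage clones picked after panning were screened for binding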
T1 construct: In the phage ELISA the Fab was biotinylated and captured on neutravidin coated plates
T1 sequence (VH, as listed by the source, chain 1 of 2): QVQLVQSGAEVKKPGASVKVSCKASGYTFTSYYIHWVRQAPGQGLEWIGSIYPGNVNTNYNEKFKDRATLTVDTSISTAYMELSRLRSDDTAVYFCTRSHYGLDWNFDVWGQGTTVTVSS
T1 sequence (VL, as listed by the source, chain 2 of 2): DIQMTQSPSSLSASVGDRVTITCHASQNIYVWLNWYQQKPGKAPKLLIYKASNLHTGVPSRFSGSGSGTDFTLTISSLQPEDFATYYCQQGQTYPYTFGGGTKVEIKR

Solved entries (count: 6):
binder | valueReported
YCDGHEPQYMTKCL [Phage-1290] | 0.68
YCMGHSAEYMGKCL [Phage-1295] | 0.64
YCDGHMDAYMSKCL [Phage-1294] | 0.65
YCEGHAAVYMHKCL [Phage-1293] | 0.67
YCEGHSRQYMEKCM [Phage-1299] | 0.63
YCEGHAQMYMLKCL [Phage-1298] | 0.64

QUERY: Entry under review: YCDGHYGAYILKCL [Phage-1292] . Reported Phage binding ELISA, Anti-CD28 Fab signal?
RESULT: 0.67

QUERY: Try YCDGHAWWYMEKCL [Phage-1296] next.
RESULT: 0.64

QUERY: Try YCQGHAPWYMVKCL [Phage-1287] next.
RESULT: 0.69

QUERY: Try YCVGHLPLYMPNCL [Phage-1289] next.
RESULT: 0.68
